Test system: A549
Assay: NCI tumour cell line growth inhibition, 48 h
The source made the active and inactive calls. No stated cut-off is given here; in the data, active = GI50 up to about 1.1 µM and inactive = higher.
Known GI50 of a selection of compounds

Prompt: Look at this compound and give its reported GI50. Cc1ccc(C2(C)NC(=S)N(NC(N)=S)C2=S)cc1 (stereo not given)
Completion: > 100 µM (inactive)

Prompt: Consider the compound shown here: `COC(=O)[C@@H]1Cc2c([nH]c3ccccc23)[C@H](c2ccccc2)N1` What is its recorded GI50?
Completion: 38.6 µM (inactive)

Prompt: Bench note: what GI50 did COc1cccc(C2CC23C(=O)NC(=O)NC3=O)c1 (stereo not given) show?
Completion: > 100 µM (inactive)

Prompt: Requested read-out: GI50. Entry: CC[S+]([O-])C(=O)N(O)c1ccc(Cl)cc1 (stereo not given)
Completion: 67.3 µM (inactive)

Prompt: Need GI50, item O=C(O)c1cc2c3c(c1)[C@H]1C=CC[C@H]1CN3CC1CC=CC21 (stereo not given in full)
Completion: > 100 µM (inactive)

Prompt: What value of measured GI50 is listed for COC1=CC(=O)c2c(O)c3c(c(O)c2C1=O)OC1(Oc2c(cc4cc(C)oc(=O)c4c2O)CC1O)C3O (stereo not given) ?
Completion: 45.2 µM (inactive)

***
Prompt: GI50 lookup needed for `N#C/C(C(=O)Nc1ccccc1)=C(/N)N1CCCCC1` , thanks.
Completion: > 100 µM (inactive)

Prompt: Sample `CCc1cc2c(cc1O)CC[C@@H]1[C@@H]2CC[C@]2(C)[C@@H](O)CC[C@@H]12` — what was its GI50?
Completion: 8.05 µM (inactive)

Prompt: Given CCCCCCCCCCC(C)CCCCCCC(=O)O (stereo not given) , state its recorded GI50.
Completion: > 100 µM (inactive)

Prompt: Please report the recorded GI50 for N#CC(NCc1cccc(CNC(C#N)c2ccccc2)c1)c1ccccc1 (stereo not given) .
Completion: 28.7 µM (inactive)

----------
System: OVCAR-8
Test: NCI tumour cell line growth inhibition, 48 h
Calls of active or inactive are those of the source. Rule as the data show it: active = GI50 up to about 1.1 µM and inactive = higher.
Pick one: y (active), n (inactive)

Some solved entries appear below for comparison.
Prompt: Tell me the assay call for N=C1OC(CN2CCN(c3ccccc3)CC2)CN1C(=S)Nc1ccccc1 (stereo unspecified) please.
Completion: n

Prompt: Which outcome was entered for the molecule `Cc1cc(N)ccc1/N=N\c1ccc(S(=O)(=O)CCOS(=O)(=O)O)cc1` in this test?
Completion: y

Prompt: I'd appreciate the recorded outcome for COC(=O)/C=C\[C@@H]1[C@H](C)N1S(=O)(=O)c1ccc(C)cc1 (stereo partly specified) from this test.
Completion: n

Please turn your attention to the following entry.
Prompt: Given O=C(O)C1CCCCC1c1c2ccc(=O)cc-2oc2cc(O)ccc12 (stereo unspecified) , state the outcome it received in this test.
Completion: n

----------
System: SF-268
Test: NCI tumour cell line growth inhibition, 48 h
Calls of active or inactive are those of the source. Cut-off read from the data, not from the text of the source: active = GI50 up to about 1.1 µM and inactive = higher.
Value Kind: GI50

Solved entries (count: 3):
Prompt: Return reported GI50; argument: COc1ccc(C23C(=O)c4ccccc4N2O[C@H]2C(=O)N(c4ccccc4)C(=O)[C@H]23)cc1 (stereo not given in full)
Completion: > 100 µM (inactive)

Prompt: Dear colleague, I am looking for the recorded GI50 of the following compound: `C#Cc1c(C)c(/C=C/C(C)=C\C(=O)OC)n(C)c1C`
Completion: 68.5 µM (inactive)

Prompt: Which GI50 value is on record for `NCCN(CCN)/[N+]([O-])=N/O` ?
Completion: > 100 µM (inactive)

Further cases:
Prompt: Which GI50 reading was recorded for the compound `C[C@H](C/C=C/C(C)(C)O)[C@H]1CC[C@@]2(C)[C@@H]3CC[C@H]4C(C)(C)[C@@H](O)CC[C@@]45C[C@@]35CC[C@]12C` ?
Completion: 1.94 µM (inactive)

Prompt: Name the reported GI50 value associated with the compound Nc1ncn([C@@H]2C=C(CO)C(O)C2O)c(=O)n1 (stereo not given in full)
Completion: > 100 µM (inactive)

Prompt: Requested field: GI50. Item: `CC(=O)OCCn1c(Cc2ccc([N+](=O)[O-])cc2)nn(C(C)=O)c1=O`
Completion: > 100 µM (inactive)

Prompt: GI50 for COC(=O)/C(C#N)=C1\CCC(OC)N1 (stereo not given) ?
Completion: > 100 µM (inactive)

Prompt: Given the entry COC(=O)C(=Cc1cc(OC)c(OC)c(OC)c1-c1cc2c(cc1C1(C)OCCS1)OCO2)C(=O)OC (stereo not given) , report its measured GI50.
Completion: 29.5 µM (inactive)

Prompt: Which value of GI50 has been reported for COc1ccc2c(c1O)C13CCN(C)C(C2)C1CCC1(C3)OCCO1 (stereo not given) in the records?
Completion: > 100 µM (inactive)

Prompt: What value of GI50 has been recorded for this entry: CCN1CCC(O)(/C=C/c2ccc(Cl)c(Cl)c2)C(C(=O)/C=C/c2ccc(Cl)c(Cl)c2)C1 (stereo not given)
Completion: 1.06 µM (active)

Prompt: Consider the compound COC1=CC(=O)c2c(O)c3c(c(O)c2C1=O)OC1(Oc2c(cc4cc(C)oc(=O)c4c2O)CC1O)C3O (stereo not given) and give its measured GI50.
Completion: 61 µM (inactive)

Prompt: # get_value(readout='GI50', item= `Cc1ccccc1/N=N/c1cc(C)c(/N=N/c2c(O)ccc3ccccc23)cc1C` )
Completion: > 100 µM (inactive)

----------
System: M19-MEL
Assay: NCI tumour cell line growth inhibition, 48 h
Activity calls are given as the source filed them. Cut-off read from the data, not from the text of the source: active = GI50 up to about 1.1 µM and inactive = higher.
GI50: recorded values

Prompt: Notebook: pull reported GI50 for M19-MEL, entry `CN(C)CCCNc1ccc2nnn3c4ccc(O)cc4c(=O)c1c23`
Completion: 12.6 µM (inactive)

Prompt: Recall the recorded GI50 for `CN1COc2c(n(C)c(=O)[nH]c2=O)C1` with M19-MEL and state it.
Completion: > 100 µM (inactive)

Prompt: Lab request: please report GI50 under test system M19-MEL for `O=S(=O)(C/C(=N\O)c1ccccc1)c1ccccc1`
Completion: > 100 µM (inactive)

Prompt: // lookup GI50 | system=M19-MEL | key= C=C1C(=O)OC2C1C(OC(=O)/C(C)=C\C)CC1(CO1)C1C(O)C=C(C)C21O (stereo not drawn)
Completion: 6.24 µM (inactive)

Prompt: Lookup: GI50 / M19-MEL / `Cc1cc(NC(=O)NC(=O)c2ccccc2NC(=O)CN(C)C)ccc1Oc1ncc(Br)cn1`
Completion: 36.8 µM (inactive)

----------
Tested on: MOLT-4
Test: NCI tumour cell line growth inhibition, 48 h
Activity calls are given as the source filed them. Rule as the data show it: active = GI50 up to about 1.1 µM and inactive = higher.
// allowed return values: active, inactive

Prompt: Recorded test outcome, item `CC(=O)OCCn1c(Cc2ccc([N+](=O)[O-])cc2)nn(C(C)=O)c1=O`
Completion: inactive

Prompt: Record request — test call for `CCCCn1c(N)c(-c2nc3ccccc3o2)sc1=S`
Completion: inactive

Prompt: Could you please tell me the result logged for `c1ccc2sc(C3(N4CCCC4)CCCCCC3)cc2c1` in this assay?
Completion: inactive

Prompt: Could you check what this test reported for Cc1cc(Cl)ccc1NC(=O)C(=O)C(C(=O)c1ccccc1)C1OC(=O)c2ccccc21 (stereo not given) ?
Completion: inactive

Prompt: Answer briefly: the call reported for `Cc1c(O)nc(-n2[nH]c3c(c2=O)CCCC3)[nH]c1=O` in this assay.
Completion: inactive

Prompt: State the result this test recorded for COC(=O)/C=C/C1C(C(=O)OC)C2(C(=O)OC)CCC1(C(=O)OC)N2 (stereo not given) .
Completion: inactive

Prompt: For `COc1ccc2cc(/C=N/NC(=O)Nc3ccccc3)ccc2c1` , which call appears in the assay record?
Completion: inactive

Prompt: So what was the verdict on `Cc1ccc(S(=O)(=O)N2CCCN(S(=O)(=O)c3ccc(C)cc3)CCN(S(=O)(=O)c3ccc(C)cc3)CCCSCC2)cc1` in this test?
Completion: inactive

Continuing:
Prompt: Please state the recorded outcome for this compound: `Cc1cc(N)ccc1/N=N\c1ccc(S(=O)(=O)CCOS(=O)(=O)O)cc1`
Completion: active

Prompt: State the result this test recorded for `CCOC(=O)/C(=C/c1cccc(Cl)c1)N(CC)CC` .
Completion: inactive

----------
Quick reference for GI50 among some molecules
Tested on: HCT-116
Assay: NCI tumour cell line growth inhibition, 48 h
The source made the active and inactive calls. Cut-off read from the data, not from the text of the source: active = GI50 up to about 1.1 µM and inactive = higher.

// known answers, use as guide
Prompt: Need GI50, item C[C@]12C(=O)C=CCC1=CC[C@@H]1[C@@H]2[C@H]2CC3(O)C(=O)O[C@@]4(C)[C@H]5C[C@@]6(C)[C@@H]7[C@@]2(O)[C@]1(OC[C@H]6C(=O)O5)O[C@]734 (some centres undefined)
Completion: 31.8 µM (inactive)

Prompt: Fill blank: measured GI50 of the molecule COc1ccc(C(=O)C(Br)C(Br)C(=O)O)cc1 (centres undefined) is ____.
Completion: 20.8 µM (inactive)

Prompt: I'd like to know its GI50. The molecule in question is `CC(=O)N(C(C)=O)c1ncc(-n2nc(-c3ccccc3)cc2-c2ccccc2)c(-c2ccccc2)n1`
Completion: 4.82 µM (inactive)

Prompt: Any idea what GI50 was measured for `CN1C(=O)C(=CNc2ccc(Cl)cc2Cl)C(=O)N(C)C1=O` ?
Completion: > 100 µM (inactive)

Prompt: // GI50 lookup, key: CC1=CCP(C(F)(F)F)P(C(F)(F)F)C1 (centres undefined)
Completion: > 100 µM (inactive)

Prompt: Item `CC1(C)CC[C@]2(C)CC=C3[C@]4(C)CC[C@H]5C(C)(C)C(=O)CC[C@]5(C)[C@H]4CC[C@@]3(C)[C@H]2C1` has what recorded GI50?
Completion: > 100 µM (inactive)

Prompt: Given the entry C=CCC1(O)c2ccccc2C(=O)c2c(O)ccc(O)c21 (centres undefined) , report its measured GI50.
Completion: 5.42 µM (inactive)

Prompt: Would you mind telling me what GI50 value was observed for `O=C(c1ccccc1)n1cc(/C=C/[N+](=O)[O-])c2ccccc21` ?
Completion: 17.9 µM (inactive)

Could you now look at the following molecule, please?
Prompt: Look at this molecule and give its reported GI50. `Nc1ccc2[nH]c3c(-c4ccccc4)nccc3c2c1`
Completion: 34.6 µM (inactive)
